target: UniProtKB P31389; experiment: In vitro inhibition of histamine-induced contractions in guinea pig ileum
Value type: log10 of IC50 (log10 of the value in µM)
Heads up, the numbers here are log10 of IC50 in µM units.

Below, each entry is followed by its recorded log10 of IC50 result.
{"Smiles data": "CCCCN1CCCN(c2nc3ccccc3n2CCOCC)CC1", "Experimental result": -2.08}
{"Smiles data": "CN1CCCN(c2nc3ccccc3n2CCOc2ccccc2)CC1", "Experimental result": -2.04}

[Q] What value of log10 of IC50 on UniProtKB P31389 does CCOCCn1c(N2CCN(C)CC2)nc2ccccc21 have?
[A] -2.00

[Q] Lab request: please report log10 of IC50 under test system UniProtKB P31389 for CCOCCn1c(N2CCN(CCc3ccccc3)CC2)nc2ccccc21
[A] -1.51

[Q] Lookup: log10 of IC50 / UniProtKB P31389 / CCCN1CCCN(c2nc3ccccc3n2CCOCC)CC1
[A] -2.08

----------
# pIC50 values compiled below
molecular target: Histamine H1 receptor (Cavia porcellus); test: In vitro inhibition of histamine-induced contractions in guinea pig ileum
Lab note — pIC50 values are minus log10 of concentrations in M.

{"Smiles data": "CCCCn1c(N2CCN(C)CC2)nc2ccccc21", "pIC50": 7.30}
{"Smiles data": "CC(C)CCn1c(N2CCN(C)CC2)nc2ccccc21", "pIC50": 5.85}
{"Smiles data": "CCCCCCn1c(N2CCN(C)CC2)nc2ccccc21", "pIC50": 7.59}

Now turn to the next compound.
[Q] Record request: pIC50 value, item CCCCCCCn1c(N2CCN(C)CC2)nc2ccccc21
[A] 6.82

----------
target: Histamine H1 receptor (Cavia porcellus, UniProt P31389); assay: In vitro inhibition of histamine-induced contractions in guinea pig ileum
Sequence (P31389 whole entry): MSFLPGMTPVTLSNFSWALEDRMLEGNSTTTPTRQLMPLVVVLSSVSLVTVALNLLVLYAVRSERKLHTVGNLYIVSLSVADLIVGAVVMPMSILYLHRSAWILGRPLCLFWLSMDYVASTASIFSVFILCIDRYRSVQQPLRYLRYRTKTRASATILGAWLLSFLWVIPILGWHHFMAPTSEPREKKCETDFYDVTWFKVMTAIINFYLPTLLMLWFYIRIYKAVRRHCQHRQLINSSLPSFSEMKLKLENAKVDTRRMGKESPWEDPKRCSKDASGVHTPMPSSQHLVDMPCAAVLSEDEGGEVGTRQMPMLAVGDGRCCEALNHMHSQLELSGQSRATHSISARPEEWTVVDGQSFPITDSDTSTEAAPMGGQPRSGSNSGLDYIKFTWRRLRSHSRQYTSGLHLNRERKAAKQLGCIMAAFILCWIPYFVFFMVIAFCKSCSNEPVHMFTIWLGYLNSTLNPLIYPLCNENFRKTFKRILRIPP
IC50 listing for selected molecules.
The reply should contain only the number, in nM.

Record excerpt, results attached:
{"Molecule": "CN1CCN(c2nc3ccccc3n2Cc2ccccc2)CC1", "IC50 (nM)": 17}
{"Molecule": "CCCCCCCCCCn1c(N2CCN(C)CC2)nc2ccccc21", "IC50 (nM)": 4200}
{"Molecule": "CCOCCn1c(N2CCCN(C)CC2)nc2ccccc21 [EMEDASTINE]", "IC50 (nM)": 6.1}
{"Molecule": "CCOCCn1c(N2CCN(Cc3ccccc3)CC2)nc2ccccc21", "IC50 (nM)": 27}
{"Molecule": "CCCCOCCn1c(N2CCCN(C)CC2)nc2ccccc21", "IC50 (nM)": 10}
{"Molecule": "CCOCCn1c(N2CCN(CC)CC2)nc2ccccc21", "IC50 (nM)": 18}
{"Molecule": "CCCn1c(N2CCN(C)CC2)nc2ccccc21", "IC50 (nM)": 380}
{"Molecule": "CCCN1CCN(c2nc3ccccc3n2CCOCC)CC1", "IC50 (nM)": 16}
{"Molecule": "CCCOCCn1c(N2CCN(C)CC2)nc2ccccc21", "IC50 (nM)": 20}
{"Molecule": "CCCCN1CCN(c2nc3ccccc3n2CCOCC)CC1", "IC50 (nM)": 15}

In the following, a different molecule is considered.
[Q] Fill in the blank: the reported IC50 of COCCn1c(N2CCN(C)CC2)nc2ccccc21 is ____.
[A] 13

----------
Measured pIC50 of individual entries
target: Histamine H1 receptor (Cavia porcellus); assay: In vitro inhibition of histamine-induced contractions in guinea pig ileum
pIC50: −log10 of the molar value.

{"Smiles data": "CCOCCn1c(N2CCN(C(c3ccccc3)c3ccccc3)CC2)nc2ccccc21", "Test system": "Histamine H1 receptor (Cavia porcellus)", "Experimental result": "< 5.52"}
{"Smiles data": "CN1CCN(c2nc3ccccc3[nH]2)CC1", "Test system": "Histamine H1 receptor (Cavia porcellus)", "Experimental result": "< 5.52"}

[Q] Look up pIC50: CCOCCn1c(N2CCN(C=O)CC2)nc2ccccc21
[A] < 5.52
